Data origin, for the record: ChEMBL document CHEMBL3112482

Protocol Notes: Growth inhibition of human HOP92 cells at 10 uM after 48 hrs
Format: functional
Experimental Setup: HOP-92, 48 h, read-out: GI
Recorded inhibition of growth at 10 µM, one value per entry.

COc1ccc(/C=C2\CCCc3c2nc(N)nc3-c2ccc(OC)cc2)cc1 : 31.4%

query: Specify reported inhibition of growth at 10 µM for the compound shown: COc1ccc(/C=C2\CCCc3c2nc(C)nc3-c2ccc(OC)cc2)cc1
result: < 30%

query: Look up and state reported inhibition of growth at 10 µM for COc1ccc(/C=C2\CCCc3c2nc(C)nc3-c2ccc(OC)c(OC)c2)cc1OC
result: 69.9%

query: Please look at this compound and report its inhibition of growth at 10 µM: Cc1nc2c(c(-c3ccc(Br)cc3)n1)CCC/C2=C\c1ccc(Br)cc1
result: < 30%

query: For COc1cc(/C=C2\CCCc3c2nc(C)nc3-c2cc(OC)c(OC)c(OC)c2)cc(OC)c1OC , write its inhibition of growth at 10 µM.
result: < 30%

query: Please report the measured inhibition of growth at 10 µM for Nc1nc2c(c(-c3ccc(Cl)cc3)n1)CCC/C2=C\c1ccc(Cl)cc1
result: < 30%

query: Answer with the recorded inhibition of growth at 10 µM of Clc1ccc(/C=C2\CCCC3=C(c4ccc(Cl)cc4)Nc4ccccc4N=C32)cc1 only.
result: 39.4%

query: Please indicate inhibition of growth at 10 µM recorded for COc1cc(/C=C2\CCCC3=C(c4cc(OC)c(OC)c(OC)c4)Nc4ccccc4N=C32)cc(OC)c1OC
result: < 30%

query: In one line, give reported inhibition of growth at 10 µM of the entry COc1ccc(/C=C2\CCCC3=C(c4ccc(OC)cc4)Nc4ccccc4N=C32)cc1 .
result: < 30%

----------
Each record here notes measured inhibition of growth at 10 µM.
Protocol Notes: Growth inhibition of human OVCAR5 cells at 10 uM after 48 hrs
Assay type: functional
Experimental Setup: OVCAR-5, 48 h, read-out: GI

Some solved entries appear below for comparison.
COc1ccc(/C=C2\CCCc3c2nc(C)nc3-c2ccc(OC)c(OC)c2)cc1OC : 95.3%
COc1cc(/C=C2\CCCC3=C(c4cc(OC)c(OC)c(OC)c4)Nc4ccccc4N=C32)cc(OC)c1OC : 83.5%
COc1ccc(/C=C2\CCCC3=C(c4ccc(OC)cc4)Nc4ccccc4N=C32)cc1 : < 30%
Nc1nc2c(c(-c3ccc(Cl)cc3)n1)CCC/C2=C\c1ccc(Cl)cc1 : < 30%
Nc1nc2c(c(-c3ccc(Br)cc3)n1)CCC/C2=C\c1ccc(Br)cc1 : < 30%

query: Give inhibition of growth at 10 µM for Clc1ccc(/C=C2\CCCC3=C(c4ccc(Cl)cc4)Nc4ccccc4N=C32)cc1
result: < 30%

query: Supply recorded inhibition of growth at 10 µM for COc1cc(/C=C2\CCCc3c2nc(N)nc3-c2cc(OC)c(OC)c(OC)c2)cc(OC)c1OC here.
result: 93.2%

query: For the molecule COc1ccc(/C=C2\CCCc3c2nc(N)nc3-c2ccc(OC)cc2)cc1 , report inhibition of growth at 10 µM.
result: < 30%

query: Identify measured inhibition of growth at 10 µM corresponding to COc1ccc(/C=C2\CCCc3c2nc(N)nc3-c2ccc(OC)c(OC)c2)cc1OC
result: < 30%

----------
System: COLO 205
Protocol Notes: Growth inhibition of human COLO205 cells at 10 uM after 48 hrs
Assay type: functional
Experimental Setup: COLO 205, 48 h, read-out: GI
Overview of reported inhibition of growth at 10 µM across a group of compounds:

Example results:
COc1ccc(/C=C2\CCCC3=C(c4ccc(OC)cc4)Nc4ccccc4N=C32)cc1 : < 30%
COc1cc(/C=C2\CCCC3=C(c4cc(OC)c(OC)c(OC)c4)Nc4ccccc4N=C32)cc(OC)c1OC : 99.8%
COc1ccc(/C=C2\CCCc3c2nc(C)nc3-c2ccc(OC)cc2)cc1 : < 30%
Cc1nc2c(c(-c3ccc(Cl)cc3)n1)CCC/C2=C\c1ccc(Cl)cc1 : < 30%
COc1ccc(/C=C2\CCCc3c2nc(N)nc3-c2ccc(OC)c(OC)c2)cc1OC : 54%

Okay, now this compound:
query: Query inhibition of growth at 10 µM for Nc1nc2c(c(-c3ccc(Br)cc3)n1)CCC/C2=C\c1ccc(Br)cc1
result: < 30%

----------
Reported IC50 for target or system Dihydrofolate reductase (Bos taurus), by entry.
Please report the result as a number followed by the unit.

Example results:
COc1ccc(/C=C2\CCCc3c2nc(N)nc3-c2ccc(OC)cc2)cc1 : 18 µM
COc1cc(/C=C2\CCCC3=C(c4cc(OC)c(OC)c(OC)c4)Nc4ccccc4N=C32)cc(OC)c1OC : 0.09 µM
Brc1ccc(/C=C2\CCCC3=C(c4ccc(Br)cc4)Nc4ccccc4N=C32)cc1 : 65 µM

query: Recall the reported IC50 of Nc1nc2c(c(-c3ccc(Br)cc3)n1)CCC/C2=C\c1ccc(Br)cc1 when tested on Dihydrofolate reductase (Bos taurus).
Sequence (P00376 whole entry): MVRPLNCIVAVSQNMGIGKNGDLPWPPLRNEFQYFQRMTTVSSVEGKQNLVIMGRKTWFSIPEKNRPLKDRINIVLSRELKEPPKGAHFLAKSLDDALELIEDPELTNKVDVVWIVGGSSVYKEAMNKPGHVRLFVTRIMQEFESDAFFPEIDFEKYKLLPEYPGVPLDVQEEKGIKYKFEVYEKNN
result: 16 µM

query: Please report IC50 with Dihydrofolate reductase (Bos taurus) for item COc1cc(/C=C2\CCCc3c2nc(C)nc3-c2cc(OC)c(OC)c(OC)c2)cc(OC)c1OC .
result: 0.5 µM

query: Provide IC50, system Dihydrofolate reductase (Bos taurus), entry Clc1ccc(/C=C2\CCCC3=C(c4ccc(Cl)cc4)Nc4ccccc4N=C32)cc1
result: 0.3 µM

----------
Tgt: UniProtKB P00376
Parameter: pIC50
For clarity, pIC50 is expressed as the negative log10 of concentration in mol/L.

Guide cases for pIC50, answers given:
Clc1cc2c(cc1Cl)NC(c1ccc(Br)cc1)=C1CCC/C(=C\c3ccc(Br)cc3)C1=N2 : 7.00
COc1ccc(/C=C2\CCCC3=C(c4ccc(OC)cc4)Nc4ccccc4N=C32)cc1 : 6.22
COc1cc(/C=C2\CCCC3=C(c4cc(OC)c(OC)c(OC)c4)Nc4cc(C)c(C)cc4N=C32)cc(OC)c1OC : 6.00
COc1ccc(/C=C2\CCCc3c2nc(C)nc3-c2ccc(OC)c(OC)c2)cc1OC : 7.00

query: Report value only: pIC50, UniProtKB P00376, COc1ccc(/C=C2\CCCc3c2nc(N)nc3-c2ccc(OC)c(OC)c2)cc1OC
result: 4.85

----------
Tested on: LOX IMVI
Protocol Notes: Growth inhibition of human LOXIMVI cells at 10 uM after 48 hrs
Type: functional
Experimental Setup: read-out: GI
# inhibition of growth at 10 µM annotations

Reference set (3 entries):
COc1ccc(/C=C2\CCCC3=C(c4ccc(OC)cc4)Nc4ccccc4N=C32)cc1 : 42.6%
COc1ccc(/C=C2\CCCc3c2nc(N)nc3-c2ccc(OC)c(OC)c2)cc1OC : 87.1%
Cc1nc2c(c(-c3ccc(Cl)cc3)n1)CCC/C2=C\c1ccc(Cl)cc1 : 63.2%

query: Please list inhibition of growth at 10 µM recorded for the compound Cc1nc2c(c(-c3ccc(Br)cc3)n1)CCC/C2=C\c1ccc(Br)cc1
result: < 30%

query: Supply recorded inhibition of growth at 10 µM for COc1ccc(/C=C2\CCCc3c2nc(N)nc3-c2ccc(OC)cc2)cc1 here.
result: < 30%

query: Given the compound COc1ccc(/C=C2\CCCc3c2nc(C)nc3-c2ccc(OC)cc2)cc1 , write its reported inhibition of growth at 10 µM.
result: < 30%

----------
System: SK-MEL-5
Protocol Notes: Growth inhibition of human SK-MEL-5 cells at 10 uM after 48 hrs
Assay type: functional
Experimental Setup: SK-MEL-5, 48 h, read-out: GI
Listing of recorded inhibition of growth at 10 µM by entry.

Nc1nc2c(c(-c3ccc(Br)cc3)n1)CCC/C2=C\c1ccc(Br)cc1 : < 30%
Cc1nc2c(c(-c3ccc(Cl)cc3)n1)CCC/C2=C\c1ccc(Cl)cc1 : < 30%

query: Jot down inhibition of growth at 10 µM (SK-MEL-5) of COc1ccc(/C=C2\CCCc3c2nc(N)nc3-c2ccc(OC)c(OC)c2)cc1OC .
result: 60.3%

query: Look up and report inhibition of growth at 10 µM, with SK-MEL-5 as system, for Nc1nc2c(c(-c3ccc(Cl)cc3)n1)CCC/C2=C\c1ccc(Cl)cc1
result: < 30%

query: Quote inhibition of growth at 10 µM with test system SK-MEL-5 for COc1ccc(/C=C2\CCCc3c2nc(C)nc3-c2ccc(OC)cc2)cc1
result: < 30%

query: Quote SK-MEL-5 inhibition of growth at 10 µM for entry Clc1ccc(/C=C2\CCCC3=C(c4ccc(Cl)cc4)Nc4ccccc4N=C32)cc1 .
result: < 30%

----------
Protocol Notes: Cytotoxicity against human renal cancer cells at 10 uM after 48 hrs
Type: functional
Experimental Setup: Cancer cell lines
Define the label as t when TGI is strictly less than 40 µM and as f in all remaining cases.

Clc1ccc(/C=C2\CCCC3=C(c4ccc(Cl)cc4)Nc4ccccc4N=C32)cc1 : t
COc1cc(/C=C2\CCCc3c2nc(C)nc3-c2cc(OC)c(OC)c(OC)c2)cc(OC)c1OC : f
COc1ccc(/C=C2\CCCc3c2nc(N)nc3-c2ccc(OC)c(OC)c2)cc1OC : f
COc1cc(/C=C2\CCCc3c2nc(N)nc3-c2cc(OC)c(OC)c(OC)c2)cc(OC)c1OC : t
O=c1[nH]cc(F)c(=O)[nH]1 [FLUOROURACIL] : f
COc1ccc(/C=C2\CCCc3c2nc(C)nc3-c2ccc(OC)c(OC)c2)cc1OC : f

query: Does this compound meet the criterion TGI < 40 µM? COc1cc(/C=C2\CCCC3=C(c4cc(OC)c(OC)c(OC)c4)Nc4ccccc4N=C32)cc(OC)c1OC
result: t
